Target or system: δ-opioid receptor (rat brain synaptosomal preparation) (rat) (UniProt P33533)
Sequence (P33533 whole entry, stated change not applied): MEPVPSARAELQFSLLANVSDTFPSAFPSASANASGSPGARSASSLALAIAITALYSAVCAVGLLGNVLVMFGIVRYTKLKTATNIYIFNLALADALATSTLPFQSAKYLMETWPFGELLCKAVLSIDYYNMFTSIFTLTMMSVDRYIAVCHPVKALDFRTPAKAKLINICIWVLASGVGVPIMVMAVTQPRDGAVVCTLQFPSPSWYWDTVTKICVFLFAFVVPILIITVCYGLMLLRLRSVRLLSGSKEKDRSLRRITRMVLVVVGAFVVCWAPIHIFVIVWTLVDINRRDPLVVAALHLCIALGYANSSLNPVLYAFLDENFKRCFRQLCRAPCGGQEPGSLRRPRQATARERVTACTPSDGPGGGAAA
Experiment summary: radioligand competition vs [^3H]N,N(CH3)2-Dmt-Tic-OH, rat brain synaptosomes
Test readout: Ki

Exercise: Give recorded Ki. H-Dmt-Tic-Ala-NHMe (peptide)
Solution: 0.12 nM

Exercise: Give recorded Ki. H-Dmt-Tic-Ala-OMe (peptide)
Solution: 0.14 nM

Exercise: Give recorded Ki. H-Dmt-Tic-Ala-NH2 (peptide)
Solution: 0.69 nM

###

Target or system: δ-opioid receptor (rat brain synaptosomal preparation) (rat) (UniProt P33533)
Experiment summary: radioligand competition vs [^3H]N,N(CH3)2-Dmt-Tic-OH, rat brain synaptosomes
The entries below come with measured Ki values attached.
API: value field is a number in nM; no unit string.

Known Ki results, listed for orientation:
* H-Dmt-Tic-Ala-OH (peptide) | 0.29
* H-Dmt-Tic-Ala-NH-tBu (peptide) | 0.08

Exercise: Give recorded Ki. H-Dmt-Tic-Ala-NH-1-adamantane (peptide)
Solution: 0.04
